biological target: Neuropilin-1 (Homo sapiens); assay: Inhibition of biotinylated VEGF-A165 binding to recombinant NRP1 (unknown origin) at 100 uM measured after 2 hrs by competition binding assay relative to VEGF-A165
Sequence (O14786 whole entry): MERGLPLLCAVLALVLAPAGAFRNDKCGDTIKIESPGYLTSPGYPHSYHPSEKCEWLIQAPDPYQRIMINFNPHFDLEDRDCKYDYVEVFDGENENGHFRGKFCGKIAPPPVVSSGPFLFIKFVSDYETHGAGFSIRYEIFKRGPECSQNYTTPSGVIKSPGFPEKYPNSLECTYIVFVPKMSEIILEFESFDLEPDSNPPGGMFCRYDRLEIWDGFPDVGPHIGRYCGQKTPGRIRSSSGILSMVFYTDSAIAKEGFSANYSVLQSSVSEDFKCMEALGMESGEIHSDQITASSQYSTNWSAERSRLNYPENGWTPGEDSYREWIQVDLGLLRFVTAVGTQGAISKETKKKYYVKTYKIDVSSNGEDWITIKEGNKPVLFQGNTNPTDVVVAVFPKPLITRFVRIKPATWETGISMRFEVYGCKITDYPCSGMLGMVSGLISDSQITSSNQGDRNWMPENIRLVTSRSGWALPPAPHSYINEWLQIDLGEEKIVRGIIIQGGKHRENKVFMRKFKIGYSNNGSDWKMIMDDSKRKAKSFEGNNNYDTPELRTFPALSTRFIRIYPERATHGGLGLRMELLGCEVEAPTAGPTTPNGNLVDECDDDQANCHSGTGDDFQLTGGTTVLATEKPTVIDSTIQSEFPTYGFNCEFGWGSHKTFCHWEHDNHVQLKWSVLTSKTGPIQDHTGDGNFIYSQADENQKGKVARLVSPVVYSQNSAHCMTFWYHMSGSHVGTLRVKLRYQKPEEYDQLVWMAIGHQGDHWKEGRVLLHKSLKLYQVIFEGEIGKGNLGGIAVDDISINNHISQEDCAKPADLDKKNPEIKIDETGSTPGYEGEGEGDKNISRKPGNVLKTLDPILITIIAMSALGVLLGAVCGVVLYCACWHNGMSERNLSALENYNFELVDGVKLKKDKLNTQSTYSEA
Classification field: enter criterion met for inhibition values not below 5%, criterion not met for values below it.

Use these answered entries as a reference point.
- test.smiles: "N=C(N)NCCCc1cn(C[C@@H]2O[C@H](CC(=O)NCCc3c[nH]c4ccccc34)[C@H](O)[C@@H]2O)nn1"
  category: "criterion not met"
- test.smiles: "CC1(C)O[C@@H]2[C@H](O1)[C@H](CN(CCCCCNC(=N)N)C(=N)N)O[C@@H]2CC(=O)NCCc1c[nH]c2ccccc12"
  category: "criterion met"
- test.smiles: "N=C(N)NCCc1cn(C[C@@H]2O[C@H](CC(=O)NCCc3c[nH]c4ccccc34)[C@H](O)[C@@H]2O)nn1"
  category: "criterion met"

Hello, I need to know if CC1(C)O[C@@H]2[C@H](O1)[C@H](CN(CCCCNC(=N)N)C(=N)N)O[C@@H]2CC(=O)NCCc1c[nH]c2ccccc12 has measured inhibition not below 5%. Thanks!
criterion met

Hello, I need to know if CC1(C)O[C@@H]2[C@H](O1)[C@@H](CN(CCNC(=N)N)C(=N)N)O[C@@H]2CC(=O)NCCc1c[nH]c2ccccc12 has measured inhibition not below 5%. Thanks!
criterion met

Hello, I need to know if CC1(C)O[C@@H]2[C@H](O1)[C@H](Cn1cc(CCCNC(=N)N)nn1)O[C@@H]2CC(=O)NCCc1c[nH]c2ccccc12 has measured inhibition not below 5%. Thanks!
criterion met
